We begin with a simple list: items and their reported log10 Kd.
biological target: T1, Cynomolgus monkey BCMA (cynomolgus monkey); experiment: SPR, IgG immobilised, cyno BCMA analyte
T1 construct: Soluble analyte in SPR; also called cyBCMA; Cyno BCMA
Lab note - Kd converted to log10 from values in pM.

A02_Rd4_0.6nM_C03 (antibody, V domains shown, IgG) VH: EVQLLESGGGLVQPGGSLRLSCAASGFTFSSYAMNWVRQAPGKGLEWVSAISDSGGSKWYADSVKGRFTISRDNSKNTLYLQMNSLRAEDTAVYYCARYWPMSLWGQGTLVTVSS VL: EIVLTQSPGTLSLSPGERATLSCRASQSVSSSYLAWYQQKPGQAPRLLMYDASIRATGIPDRFSGSGSGTDFTLTISRLEPEDFAVYYCQQYFTWPLTFGQGTKVEIK    2.30
COMBO_Rd4_0.6nM_C29 (antibody, V domains shown, IgG) VH: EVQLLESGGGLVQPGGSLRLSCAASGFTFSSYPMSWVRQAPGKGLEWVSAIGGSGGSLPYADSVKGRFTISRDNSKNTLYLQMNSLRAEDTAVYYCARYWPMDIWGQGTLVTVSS VL: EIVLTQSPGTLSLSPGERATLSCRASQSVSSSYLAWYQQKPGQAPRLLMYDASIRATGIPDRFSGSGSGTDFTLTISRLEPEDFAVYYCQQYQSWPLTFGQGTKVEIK    1.92
COMBO_Rd4_6nM_C11 (antibody, V domains shown, IgG) VH: EVQLLESGGGLVQPGGSLRLSCAASGFTFSSYPMSWVRQAPGKGLEWVSAIGGSGGSLGYADSVKGRFTISRDNSKNTLYLQMNSLRAEDTAVYYCARYWPMDSWGQGTLVTVSS VL: EIVLTQSPGTLSLSPGERATLSCRASQSVSPLYLAWYQQKPGQAPRLLMYDASIRATGIPDRFSGSGSGTDFTLTISRLEPEDFAVYYCQQYKAWPLTFGQGTKVEIK    2.19

Request: State the recorded log10 Kd for this entry: A02_Rd4_6nM_C08 (antibody, V domains shown, IgG) VH: EVQLLESGGGLVQPGGSLRLSCAASGFTFSSYAMNWVRQAPGKGLEWVSAILDSGGSTYYADSVKGRFTISRDNSKNTLYLQMNSLRAEDTAVYYCARYWPMSPWGQGTLVTVSS VL: EIVLTQSPGTLSLSPGERATLSCRASQSVSFLYLAWYQQKPGQAPRLLMYDASIRATGIPDRFSGSGSGTDFTLTISRLEPEDFAVYYCQQYGSWPLTFGQGTKVEIK
Response: 3.71

Request: State the recorded log10 Kd for this entry: C01_Rd4_0.6nM_C16 (antibody, V domains shown, IgG) VH: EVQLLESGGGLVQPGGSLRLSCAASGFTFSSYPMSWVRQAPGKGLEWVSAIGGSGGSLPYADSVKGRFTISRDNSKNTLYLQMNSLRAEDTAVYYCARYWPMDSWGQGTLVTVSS VL: EIVLTQSPGTLSLSPGERATLSCRASQSVSSTYLAWYQQKPGQAPRLLIYDASSRAPGIPDRFSGSGSGTDFTLTISRLEPEDFAVYYCQQYSSWPLTFGQGTKVEIK
Response: 2.97
